- system_under_test: recombinant human KLK5 (Homo sapiens, UniProt Q9Y337)
- assay_info: Kallikrein (KLK) 5 enzymatic assay (Boc-VPR-AMC fluorogenic substrate)
- condition_context: recombinant human KLK5 0.1 μg/well, Boc-VPR-AMC 100 μM, pH 7.5, room temperature, 1% DMSO; tested a minimum of three times
assay_endpoint: IC50

Give reported IC50 value for Cc1cccc(O[C@@H]2CCc3ccc(-c4cccc5c(N)nccc45)cc32)c1CC(=O)O [Compound 259c]
< 1000 nM

# return recorded IC50 for input Nc1nccc2c(-c3ccc4c(c3)c(COc3ccccc3CC(=O)O)nn4CCF)cccc12 [Compound 183b]
< 1000 nM

Write down IC50 measured for item Cc1cccc(CC(=O)O)c1OCc1nn(C2CCC2)c2ccc(-c3cccc4c(N)nccc34)cc12 [Compound 160b]
1000 to 10000 nM

Consider the compound Nc1nccc2ccc(-c3ccc4c(c3)c(COc3ccccc3CC(=O)O)nn4C3CCCC3)cc12 [Compound 42d] . State its measured IC50.
< 1000 nM

Identify the reported IC50 for the following entry. CCOc1c(C(=N)N)cccc1-c1ccc2c(c1)c(COc1ccccc1CC(=O)O)nn2C(C)C [Compound 273e]
< 1000 nM

Let me know recorded IC50 for CC(C)n1nc(COc2ccccc2CC(=O)O)c2cc(-c3cnc4[nH]nc(N)c4c3)ccc21 [Compound 68c] , thanks.
> 10000 nM

Given the compound Cc1cccc(OC2CC3(CCOCC3)c3ccc(-c4cccc5c(N)nccc45)cc32)c1CC(=O)O (stereo not shown) [Compound 353b] , write its reported IC50.
< 1000 nM

* * *

- system_under_test: recombinant human KLK5 (Homo sapiens, UniProt Q9Y337)
- Construct: purchased Novoprotein or R&D Systems C415 or 1108-SE
- assay_info: Kallikrein (KLK) 5 enzymatic assay (Boc-VPR-AMC fluorogenic substrate)
- Assay type: biochemical
- condition_context: recombinant human KLK5 0.1 μg/well, Boc-VPR-AMC 100 μM, pH 7.5, room temperature, 1% DMSO; tested a minimum of three times
pIC50: −log10 of the molar value.
assay_endpoint: pIC50

Specify pIC50 for Nc1nccc2ccc(-c3ccc4c(c3)c(COc3ccccc3CC(=O)O)nn4C3CCC3)cc12 [Compound 37c] and stop.
> 6.00

Answer with reported pIC50 of Nc1nccc2ccc(-c3ccc4c(c3)c(COc3ccccc3CC(=O)O)nn4CC3CCOC3)cc12 (stereo not shown) [Compound 89b]
> 6.00

Tell me pIC50 reported for Nc1nccc2c(-c3cnc4c(c3)c(COc3ccccc3CC(=O)O)cn4C3CCOC3)cccc12 (stereo not shown) [Compound 279g]
> 6.00

Look up pIC50 of CCC(=O)N1CCC2(CC1)CC(Oc1cccc(C)c1CC(=O)O)c1cc(-c3ccc4ccnc(N)c4c3)ccc12 (stereo not shown) [Compound 388b] and report it.
> 6.00

Fill in pIC50 for record COc1ccc(CC(=O)O)c(OC2c3cc(-c4ccc5ccnc(N)c5c4)ccc3CC2(C)C)c1 (stereo not shown) [Compound 441b]
5.00 to 6.00

Tell me pIC50 reported for CC(C)n1nc(COc2ccccc2CC(=O)O)c2cc(-c3ccc4c(c3)C(N)CCO4)ccc21 (stereo not shown) [Compound 214c]
< 5.00

Kindly indicate its recorded pIC50. Item: Cc1ccc(CC(=O)O)c(O[C@@H]2CCc3ccc(-c4ccc5ccnc(N)c5c4)cc32)c1 [Compound 425c]
> 6.00

Specify measured pIC50 for Cn1c(=O)n(Cc2ccccc2CC(=O)O)c2cc(-c3cccc(C(=N)N)c3)ccc21 [Compound 219c] .
5.00 to 6.00

Name the recorded pIC50 of the molecule listed here: CC(C)n1nc(C(=O)Nc2ccccc2C(=O)O)c2cc(-c3cccc(C(=N)N)c3)ccc21
5.00 to 6.00

Tell me pIC50 reported for CCC(=O)N1CCC2(CC1)CC(Oc1ccccc1CC(=O)O)c1cc(-c3cccc4c(N)nccc34)ccc12 (stereo not shown) [Compound 385c]
> 6.00

Look up and state reported pIC50 for CCC(=O)N1CCC2(CC1)CC(Oc1ccccc1CC(=O)O)c1cc(-c3cccc4c(N)nccc34)ccc12 (single isomer, unassigned; (-)) [Compound 385e]
> 6.00

Return pIC50 for the following molecule: COC(=O)N1CCC2(CC1)C[C@@H](Oc1ccccc1CC(=O)O)c1cc(-c3cccc4c(N)nccc34)ccc12 [Compound 398d]
> 6.00

Supply recorded pIC50 for Nc1nccc2c(-c3ccc4nn(C5CCOC5)c(COc5ccccc5CC(=O)O)c4c3)cccc12 (stereo not shown) here.
> 6.00

* * *

Please go through the items and note down their IC50.
- system_under_test: recombinant human KLK5 (Homo sapiens, UniProt Q9Y337)
- Sequence (Q9Y337 23-293): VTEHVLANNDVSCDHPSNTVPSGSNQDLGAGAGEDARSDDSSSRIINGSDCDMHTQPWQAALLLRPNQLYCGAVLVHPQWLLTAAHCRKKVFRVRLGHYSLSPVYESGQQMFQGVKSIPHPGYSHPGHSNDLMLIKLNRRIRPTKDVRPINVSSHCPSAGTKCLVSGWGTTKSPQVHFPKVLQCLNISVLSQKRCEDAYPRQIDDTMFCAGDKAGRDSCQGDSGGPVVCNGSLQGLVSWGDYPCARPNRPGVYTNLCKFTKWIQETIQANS
- assay_info: Kallikrein (KLK) 5 enzymatic assay (Boc-VPR-AMC fluorogenic substrate)
- condition_context: recombinant human KLK5 0.1 μg/well, Boc-VPR-AMC 100 μM, pH 7.5, room temperature, 1% DMSO; tested a minimum of three times

Annotate the compound COC(=O)N1CCC2(CC1)CC(Oc1cc(C)ccc1CC(=O)O)c1cc(-c3cccc4c(N)nccc34)ccc12 (stereo not drawn) [Compound 413b] with its measured IC50.
< 1 µM

Give reported IC50 value for Nc1nccc2ccc(-c3ccc4c(c3)[C@H](Oc3cc(F)ccc3CC(=O)O)CC4)cc12 [Compound 421c]
< 1 µM

Please look at this compound and report its IC50: Nc1nccc2ccc(-c3ccc4c(c3)c(COc3ccccc3CC(=O)O)nn4C3CCN(CC(=O)O)C3)cc12 (stereo not drawn) [Compound 297d]
< 1 µM

* * *

- system_under_test: recombinant human KLK5 (Homo sapiens)
- assay_info: Kallikrein (KLK) 5 enzymatic assay (Boc-VPR-AMC fluorogenic substrate)
- condition_context: recombinant human KLK5 0.1 μg/well, Boc-VPR-AMC 100 μM, pH 7.5, room temperature, 1% DMSO; tested a minimum of three times
assay_endpoint: IC50

In one line, give reported IC50 of the entry CCOC(=O)N1CC[C@H](n2nc(COc3cccc(C4CC4)c3CC(=O)O)c3cc(-c4cccc5c(N)nccc45)ccc32)C1 [Compound 357b] .
< 1000 nM

Report measured IC50; entry is N#Cc1cccc(CC(=O)O)c1O[C@@H]1CCc2ccc(-c3ccc4ccnc(N)c4c3)cc21 [Compound 429d]
1000 to 10000 nM

Find the measured IC50 of CC(C)n1nc(COc2ccccc2CC(=O)O)c2cc(-c3ccc4ncc(N)n4n3)ccc21 [Compound 55c] and report it.
> 10000 nM

Quick one: give measured IC50 for Cc1cccc(OCc2nn(C3CCC(F)(F)C3)c3ccc(-c4cccc5c(N)nccc45)cc23)c1CC(=O)O (stereo not shown) [Compound 276c]
< 1000 nM

Quote IC50 reported for Nc1nccc2ccc(-c3ccc4c(c3)c(COc3ccccc3CC(=O)O)nn4CC3CNC3)cc12 [Compound 295c] please.
< 1000 nM

Query IC50 for Nc1nccc2ccc(-c3ccc4nn([C@H]5CCN(CC(=O)O)C5)c(COc5ccccc5CC(=O)O)c4c3)cc12 [Compound 116b]
1000 to 10000 nM

Answer with the recorded IC50 of CC[C@H](C)n1nc(COc2ccccc2CC(=O)O)c2cc(-c3ccc4ccnc(N)c4c3)ccc21 [Compound 192e] only.
< 1000 nM
